# Assay Notes: Drug metabolism in human hepatocytes at 10 uM after 30 mins by LC-MS/MS analysis
# Type: ADME, cell-based, Hepatocyte
# Test Conditions: read-out: Drug metabolism
Readout Kind: metabolised at 0.5 h, 10 µM (%)

INSERT INTO results (chemical_string, reading) VALUES
  ('CC1(C)CC(=O)c2c(noc2Cc2ccc(F)cc2)C1', 72);

----------
# Tested On: Steroid 17-alpha-hydroxylase/17,20 lyase (Homo sapiens, UniProt P05093)
# Sequence (P05093 whole entry): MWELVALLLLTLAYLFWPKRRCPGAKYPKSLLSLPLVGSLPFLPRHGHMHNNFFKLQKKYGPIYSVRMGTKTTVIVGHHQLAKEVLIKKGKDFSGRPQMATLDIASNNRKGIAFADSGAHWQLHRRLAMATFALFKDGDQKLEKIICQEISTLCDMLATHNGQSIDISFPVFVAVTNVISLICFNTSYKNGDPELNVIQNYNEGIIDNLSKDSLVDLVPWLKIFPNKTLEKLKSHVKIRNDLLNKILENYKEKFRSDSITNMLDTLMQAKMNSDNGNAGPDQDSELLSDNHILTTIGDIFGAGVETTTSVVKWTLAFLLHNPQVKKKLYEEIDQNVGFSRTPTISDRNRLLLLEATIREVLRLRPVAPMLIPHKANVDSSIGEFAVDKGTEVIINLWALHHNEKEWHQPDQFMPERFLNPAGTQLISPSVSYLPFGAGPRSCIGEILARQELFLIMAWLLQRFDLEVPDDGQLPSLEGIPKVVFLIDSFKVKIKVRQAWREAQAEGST
Readout Kind: IC50

INSERT INTO measurements (chemical_string, readout_kind, reading) VALUES
  ('CN(CCO)C(=O)c1ccc(Cc2onc3c2C(=O)CC(C)(C)C3)cc1', 'IC50', '> 31.6 µM'),
  ('CC1(C)CC(=O)c2c(noc2-c2ccccc2)C1', 'IC50', '> 31.6 µM'),
  ('COc1ccc(Cc2onc3c2C(=O)CC(C)(C)C3)cc1', 'IC50', '> 31.6 µM'),
  ('N#Cc1ccc([C@H]2CCc3cncn32)c(F)c1', 'IC50', '3.98 µM'),
  ('CC1(C)CC(=O)c2c(noc2Cc2ccc(S(C)(=O)=O)cc2)C1', 'IC50', '> 31.6 µM');

----------
# reported bioavailability; entries follow
# Assay Notes: Oral bioavailability in Wistar Han rat
# Assay type: ADME, organism-based
# Test Conditions: in vivo
Readout Kind: bioavailability (%)

INSERT INTO results (chemical_string, display_unit, reading) VALUES
  ('CN(CCO)C(=O)c1ccc(Cc2onc3c2C(=O)CC(C)(C)C3)cc1', '%', 14),
  ('CC1(C)CC(=O)c2c(noc2Cc2ccc(C(N)=O)cc2)C1', '%', 8),
  ('CC1(C)CC(=O)c2c(noc2Cc2ccc(C(=O)N3CC[C@@H](O)C3)cc2)C1', '%', 11);

----------
# reported Ratio IC50; entries follow
# Species: Macaca fascicularis
# Assay Notes: Selectivity index, ratio of IC50 for cynomolgus monkey adrenal mitochondrial CYP11B1 to IC50 for cynomolgus monkey adrenal mitochondrial CYP11B2
Readout Kind: Ratio IC50

INSERT INTO measurements (molecule, readout_kind, censoring_qualifier, reading) VALUES
  ('N#Cc1ccc(Cc2onc3c2C(=O)CC(C2CC2)C3)cc1 (centres undefined)', 'Ratio IC50', '=', 15),
  ('CC1(C)CC(=O)c2c(noc2Cc2ccc(S(C)(=O)=O)cc2)C1', 'Ratio IC50', '=', 42),
  ('CC1(C)CC(=O)c2c(noc2-c2ccccc2)C1', 'Ratio IC50', '<', 53),
  ('CC1(C)CC(=O)c2c(noc2Cc2ccc(C(N)=O)cc2)C1', 'Ratio IC50', '=', 150);

----------
# reported pIC50; entries follow
# Assay Notes: Inhibition of cynomolgus monkey adrenal mitochondrial CYP11B2 using corticosterone as substrate after 60 mins in presence of NADPH by mass spectrometric analysis
Readout Kind: pIC50

INSERT INTO results (chemical_string, reading) VALUES
  ('Clc1ccc(-c2ccno2)cc1Cl', '< 4.7'),
  ('CC1(C)CC(=O)c2c(noc2-c2ccccc2)C1', '< 6'),
  ('CC1(C)CC(=O)c2c(n[nH]c2Cc2ccc(C#N)cc2)C1', '< 6');

Every entry's value here was drawn from ChEMBL document CHEMBL4184185.
